# ASSAY SYSTEM: Tyrosine-protein kinase BTK (Homo sapiens, UniProt Q06187)
# Sequence (Q06187 whole entry, the tested form may be a part): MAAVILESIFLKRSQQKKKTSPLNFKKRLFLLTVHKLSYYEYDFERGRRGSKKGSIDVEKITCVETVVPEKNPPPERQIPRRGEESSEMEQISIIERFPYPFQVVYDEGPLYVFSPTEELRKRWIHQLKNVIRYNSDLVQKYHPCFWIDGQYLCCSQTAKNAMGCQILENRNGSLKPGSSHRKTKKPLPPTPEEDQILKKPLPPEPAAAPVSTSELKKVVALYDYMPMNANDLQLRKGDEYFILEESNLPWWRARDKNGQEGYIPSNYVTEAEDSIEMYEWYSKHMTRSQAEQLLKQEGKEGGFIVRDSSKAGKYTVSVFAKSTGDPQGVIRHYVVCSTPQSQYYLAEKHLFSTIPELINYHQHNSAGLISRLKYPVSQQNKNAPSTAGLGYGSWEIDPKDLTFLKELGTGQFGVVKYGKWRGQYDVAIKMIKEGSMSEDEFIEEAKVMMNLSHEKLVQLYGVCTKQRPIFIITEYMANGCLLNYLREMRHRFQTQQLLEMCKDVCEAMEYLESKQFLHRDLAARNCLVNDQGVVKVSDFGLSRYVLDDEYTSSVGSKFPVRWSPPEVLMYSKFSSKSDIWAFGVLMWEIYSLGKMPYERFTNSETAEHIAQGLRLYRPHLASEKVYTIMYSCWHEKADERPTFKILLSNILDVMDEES
# ASSAY EXPLANATION: Inhibition of wild type N-terminal GST tagged BTK (unknown origin) (2 to 659 residues) expressed in sf21 insect cell using TK as substrate incubated for 50 mins in presence of ATP by HTRF assay
QUANTITY MEASURED: IC50 (nM)

Before answering, review these 5 worked examples.
- CHEMICAL SMILES: "C=CC(=O)Nc1cccc(Nc2ncc(NC(=O)c3cc(NC(=O)c4ccc5cnccc5c4)ccc3C)cn2)c1"
  VALUE OBSERVED: 56
- CHEMICAL SMILES: "Cc1ccc(NC(=O)c2cccc(-c3ccc(F)nc3)c2)cc1C(=O)Nc1cnc(Nc2cccc(N)c2)nc1"
  VALUE OBSERVED: 507
- CHEMICAL SMILES: "Cc1ccc(NC(=O)c2ccc3cc4ccccc4cc3c2)cc1C(=O)Nc1cnc(Nc2cccc(N)c2)nc1"
  VALUE OBSERVED: 319
- CHEMICAL SMILES: "Cc1ccc(NC(=O)c2ccc3ncccc3c2)cc1C(=O)Nc1cnc(Nc2cccc(N)c2)nc1"
  VALUE OBSERVED: 410
- CHEMICAL SMILES: "Cc1ccc(NC(=O)CC23CC4CC(CC(C4)C2)C3)cc1C(=O)Nc1cnc(Nc2cccc(N)c2)nc1"
  VALUE OBSERVED: 338

I = C=CC(=O)NCCC(=O)Nc1cccc(Nc2ncc(NC(=O)c3cc(NC(=O)c4ccc5cnccc5c4)ccc3C)cn2)c1
II = Cc1ccc(NC(=O)c2ccc3ccccc3c2)cc1C(=O)Nc1cnc(Nc2cccc(N)c2)nc1
stdin: Field: lower IC50 | Options: I / II Label of pick, please.
stdout: II

I = Cc1ccc(NC(=O)c2ccc3cc(Br)ccc3c2)cc1C(=O)Nc1cnc(Nc2cccc(N)c2)nc1
II = Cc1ccc(NC(=O)c2ccc(-c3ccccc3)cc2)cc1C(=O)Nc1cnc(Nc2cccc(N)c2)nc1
III = Cc1ccc(NC(=O)OCc2ccccc2)cc1C(=O)Nc1cnc(Nc2cccc(N)c2)nc1
IV = Cc1ccc(NC(=O)c2cccc(C(F)(F)F)c2)cc1C(=O)Nc1cnc(Nc2cccc(N)c2)nc1
V = Cc1ccc(NC(=O)c2cccc(-c3ccccc3)c2)cc1C(=O)Nc1cnc(Nc2cccc(N)c2)nc1
stdin: Ascending by IC50, please. To answer, write out the labels according to the requested order.
stdout: IV, I, II, III, V

a = Cc1ccc(NC(=O)c2ccc3cnccc3c2)cc1C(=O)Nc1cnc(Nc2cccc(NC3CCN(C(=O)/C=C/CN(C)C)CC3)c2)nc1
b = Cc1ccc(NC(=O)c2ccc3cnccc3c2)cc1C(=O)Nc1cnc(Nc2cccc(N)c2)nc1
stdin: Could you point out whether the larger IC50 belongs to a or to b ? Your answer should be the label attached to the chosen record.
stdout: b
(b: 407 nM, a: 202 nM)

* * *

# ASSAY EXPLANATION: Antiproliferative activity against human PBMC cells assessed as cell growth inhibition incubated for 72 hrs by celltiter-glo luminescent cell viability assay
# Assay type: toxicity, cell-based
QUANTITY MEASURED: GI50 at 72 h

stdin: # query: GI50 at 72 h of entry Cc1ccc(NC(=O)c2ccc3cnccc3c2)cc1C(=O)Nc1cnc(Nc2cccc(NC3CCN(C(=O)/C=C/CN(C)C)CC3)c2)nc1
stdout: > 30 µM
